target: HIV-1 RT (Human immunodeficiency virus type 1 group M subtype B, UniProt P04585); construct: HIV-1 RT Assays in the Presence of Artificial Template/Primer; experiment: HIV-1 RT assay in the presence of artificial template/primer; type: biochemical
The entries below are paired with their reported IC50.
Answer with a number only, understood to be in µM.

Worked examples follow.
INSERT INTO measurements (molecule, system_name, measure, obs_value) VALUES
  ('Cc1cn(C[C@H]2C3C=CC(C3)[C@H]2COC(C(=O)O)P(=O)(O)O)c(=O)[nH]c1=O (some centres unmarked) [Compound 13f]', 'HIV-1 RT (Human immunodeficiency virus type 1 group M subtype B, UniProt P04585)', 'IC50', 340),
  ('Cc1cn(CCOC(C(=O)O)P(=O)(O)O)c(=O)[nH]c1=O (centres unmarked)', 'HIV-1 RT (Human immunodeficiency virus type 1 group M subtype B, UniProt P04585)', 'IC50', 17),
  ('Cc1cn(C(C)COC(C(=O)O)P(=O)(O)O)c(=O)[nH]c1=O (centres unmarked)', 'HIV-1 RT (Human immunodeficiency virus type 1 group M subtype B, UniProt P04585)', 'IC50', 133),
  ('Cc1cn(C/C=C\COC(C(=O)O)P(=O)(O)O)c(=O)[nH]c1=O (centres unmarked) [Compound 13a]', 'HIV-1 RT (Human immunodeficiency virus type 1 group M subtype B, UniProt P04585)', 'IC50', 235);

Next molecule, IC50 to be filled in.
Req: I'm curious: which IC50 was measured for Cc1cn(C[C@H]2C[C@H]2COC(C(=O)O)P(=O)(O)O)c(=O)[nH]c1=O (some centres unmarked) [Compound 13c] tested on HIV-1 RT (Human immunodeficiency virus type 1 group M subtype B, UniProt P04585)?
Resp: 440

----------
The entries below are paired with their reported IC50.
biological target: HIV-1 RT (Human immunodeficiency virus type 1 group M subtype B); construct: HIV-1 RT Assays in the Presence of Artificial Template/Primer; test: HIV-1 RT assay in the presence of artificial template/primer; type: biochemical
Use µM as the unit, but write only the number.

Some entries whose results are on file:
INSERT INTO measurements (molecule, measure, uom, obs_value) VALUES
  ('Cc1cn(CC(C)OC(C(=O)O)P(=O)(O)O)c(=O)[nH]c1=O (centres unmarked) [Compound 8b]', 'IC50', 'µM', 18),
  ('Cc1cn(CCCCOC(C(=O)O)P(=O)(O)O)c(=O)[nH]c1=O (centres unmarked) [Compound 13h]', 'IC50', 'µM', 145),
  ('Cc1cn(Cc2ccccc2COC(C(=O)O)P(=O)(O)O)c(=O)[nH]c1=O (centres unmarked) [Compound 13g]', 'IC50', 'µM', 131);

Req: So what does the record say about IC50 for Cc1cn(C[C@H]2CC=CC[C@H]2COC(C(=O)O)P(=O)(O)O)c(=O)[nH]c1=O (some centres unmarked) [Compound 13e] ?
Resp: 425

----------
target: HSV-1 DNA pol (Human herpesvirus 1)
Sequence (P04293 whole entry): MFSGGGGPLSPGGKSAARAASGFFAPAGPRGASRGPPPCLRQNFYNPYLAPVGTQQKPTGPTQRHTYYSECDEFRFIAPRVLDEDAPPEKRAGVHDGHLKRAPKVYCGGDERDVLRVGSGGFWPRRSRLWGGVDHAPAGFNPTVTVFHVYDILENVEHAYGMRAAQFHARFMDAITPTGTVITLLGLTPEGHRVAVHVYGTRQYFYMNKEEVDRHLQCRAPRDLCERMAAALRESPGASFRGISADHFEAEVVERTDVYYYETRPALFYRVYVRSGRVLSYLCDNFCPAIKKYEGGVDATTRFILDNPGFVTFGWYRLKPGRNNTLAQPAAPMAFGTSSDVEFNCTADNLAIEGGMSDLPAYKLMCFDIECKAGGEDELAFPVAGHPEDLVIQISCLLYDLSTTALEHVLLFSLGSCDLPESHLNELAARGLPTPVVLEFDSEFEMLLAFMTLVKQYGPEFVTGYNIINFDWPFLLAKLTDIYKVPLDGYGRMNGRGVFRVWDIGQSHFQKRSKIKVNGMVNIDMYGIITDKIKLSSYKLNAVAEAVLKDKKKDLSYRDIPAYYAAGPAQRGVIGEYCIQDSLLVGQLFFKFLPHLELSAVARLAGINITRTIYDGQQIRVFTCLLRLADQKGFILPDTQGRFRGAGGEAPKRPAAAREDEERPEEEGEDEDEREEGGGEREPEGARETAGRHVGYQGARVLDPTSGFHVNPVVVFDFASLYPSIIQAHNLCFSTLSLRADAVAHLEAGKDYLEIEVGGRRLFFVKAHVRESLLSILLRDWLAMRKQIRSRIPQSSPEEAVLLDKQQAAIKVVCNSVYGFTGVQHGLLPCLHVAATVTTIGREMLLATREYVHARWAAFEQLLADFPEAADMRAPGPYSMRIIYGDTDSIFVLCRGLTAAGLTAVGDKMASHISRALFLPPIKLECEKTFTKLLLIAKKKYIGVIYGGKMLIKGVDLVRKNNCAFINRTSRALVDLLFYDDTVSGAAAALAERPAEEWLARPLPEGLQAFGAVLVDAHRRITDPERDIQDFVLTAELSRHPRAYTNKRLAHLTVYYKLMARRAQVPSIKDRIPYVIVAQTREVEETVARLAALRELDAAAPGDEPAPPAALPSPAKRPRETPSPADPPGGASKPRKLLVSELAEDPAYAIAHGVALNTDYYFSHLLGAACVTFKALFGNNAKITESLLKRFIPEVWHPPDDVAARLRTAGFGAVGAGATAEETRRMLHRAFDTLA
measure: pIC50
Worth noting: pIC50 values are minus log10 of concentrations stated in mol/L.

Examples from the recorded data:
INSERT INTO results (compound, obs_value) VALUES
  ('Cc1cn(CCCCOC(C(=O)O)P(=O)(O)O)c(=O)[nH]c1=O (stereo not drawn) [Compound 13h]', 4.25),
  ('Cc1cn(C[C@H]2CCC[C@H]2COC(C(=O)O)P(=O)(O)O)c(=O)[nH]c1=O (stereo partly drawn) [Compound 13d]', 4.47),
  ('Cc1cn(Cc2ccccc2COC(C(=O)O)P(=O)(O)O)c(=O)[nH]c1=O (stereo not drawn) [Compound 13g]', 4.96),
  ('COC(=O)C(OC[C@@H]1CCCC[C@@H]1Cn1cc(C)c(=O)[nH]c1=O)P(=O)(O)O (stereo partly drawn) [Compound 13j]', 4.37),
  ('Cc1cn(CCOC(C(=O)O)P(=O)(O)O)c(=O)[nH]c1=O (stereo not drawn)', 4.72),
  ('Cc1cn(C(C)COC(C(=O)O)P(=O)(O)O)c(=O)[nH]c1=O (stereo not drawn)', 4.80),
  ('Cc1cn(C[C@H]2CC=CC[C@H]2COC(C(=O)O)P(=O)(O)O)c(=O)[nH]c1=O (stereo partly drawn) [Compound 13e]', 4.80),
  ('Cc1cn(C/C=C\COC(C(=O)O)P(=O)(O)O)c(=O)[nH]c1=O (stereo not drawn) [Compound 13a]', 4.70),
  ('Cc1cn(C[C@H]2C[C@H]2COC(C(=O)O)P(=O)(O)O)c(=O)[nH]c1=O (stereo partly drawn) [Compound 13c]', 4.46),
  ('Cc1cn(C[C@H]2CCCC[C@H]2COC(C(=O)O)P(=O)(O)O)c(=O)[nH]c1=O (stereo partly drawn) [Compound 13i]', 4.89);

Req: Which measured pIC50 belongs to Cc1cn(CC(C)OC(C(=O)O)P(=O)(O)O)c(=O)[nH]c1=O (stereo not drawn) , tested on HSV-1 DNA pol (Human herpesvirus 1)?
Resp: 4.92

Req: Short answer please: pIC50, HSV-1 DNA pol (Human herpesvirus 1), entry Cc1cn(C[C@H]2C3C=CC(C3)[C@H]2COC(C(=O)O)P(=O)(O)O)c(=O)[nH]c1=O (stereo partly drawn) [Compound 13f]
Resp: 4.49

----------
Form: system (HCMV DNA pol (Human cytomegalovirus, UniProt P08546)), quantity (pIC50), values below.
Kindly note that pIC50 refers to -log10 of the concentration in mol/L and answer with the value alone.

Worked cases, pIC50 given:
INSERT INTO assay_data (compound, system_name, measure, obs_value) VALUES
  ('Cc1cn(CC(C)OC(C(=O)O)P(=O)(O)O)c(=O)[nH]c1=O (centres unmarked)', 'HCMV DNA pol (Human cytomegalovirus, UniProt P08546)', 'pIC50', 3.95),
  ('Cc1cn(C/C=C\COC(C(=O)O)P(=O)(O)O)c(=O)[nH]c1=O (centres unmarked) [Compound 13a]', 'HCMV DNA pol (Human cytomegalovirus, UniProt P08546)', 'pIC50', 5.68),
  ('Cc1cn(C[C@H]2C3C=CC(C3)[C@H]2COC(C(=O)O)P(=O)(O)O)c(=O)[nH]c1=O (some centres unmarked) [Compound 13f]', 'HCMV DNA pol (Human cytomegalovirus, UniProt P08546)', 'pIC50', 4.85);

Req: Recall the recorded pIC50 for Cc1cn(C[C@H]2CC=CC[C@H]2COC(C(=O)O)P(=O)(O)O)c(=O)[nH]c1=O (some centres unmarked) [Compound 13e] with HCMV DNA pol (Human cytomegalovirus, UniProt P08546) and state it.
Sequence (P08546 whole entry): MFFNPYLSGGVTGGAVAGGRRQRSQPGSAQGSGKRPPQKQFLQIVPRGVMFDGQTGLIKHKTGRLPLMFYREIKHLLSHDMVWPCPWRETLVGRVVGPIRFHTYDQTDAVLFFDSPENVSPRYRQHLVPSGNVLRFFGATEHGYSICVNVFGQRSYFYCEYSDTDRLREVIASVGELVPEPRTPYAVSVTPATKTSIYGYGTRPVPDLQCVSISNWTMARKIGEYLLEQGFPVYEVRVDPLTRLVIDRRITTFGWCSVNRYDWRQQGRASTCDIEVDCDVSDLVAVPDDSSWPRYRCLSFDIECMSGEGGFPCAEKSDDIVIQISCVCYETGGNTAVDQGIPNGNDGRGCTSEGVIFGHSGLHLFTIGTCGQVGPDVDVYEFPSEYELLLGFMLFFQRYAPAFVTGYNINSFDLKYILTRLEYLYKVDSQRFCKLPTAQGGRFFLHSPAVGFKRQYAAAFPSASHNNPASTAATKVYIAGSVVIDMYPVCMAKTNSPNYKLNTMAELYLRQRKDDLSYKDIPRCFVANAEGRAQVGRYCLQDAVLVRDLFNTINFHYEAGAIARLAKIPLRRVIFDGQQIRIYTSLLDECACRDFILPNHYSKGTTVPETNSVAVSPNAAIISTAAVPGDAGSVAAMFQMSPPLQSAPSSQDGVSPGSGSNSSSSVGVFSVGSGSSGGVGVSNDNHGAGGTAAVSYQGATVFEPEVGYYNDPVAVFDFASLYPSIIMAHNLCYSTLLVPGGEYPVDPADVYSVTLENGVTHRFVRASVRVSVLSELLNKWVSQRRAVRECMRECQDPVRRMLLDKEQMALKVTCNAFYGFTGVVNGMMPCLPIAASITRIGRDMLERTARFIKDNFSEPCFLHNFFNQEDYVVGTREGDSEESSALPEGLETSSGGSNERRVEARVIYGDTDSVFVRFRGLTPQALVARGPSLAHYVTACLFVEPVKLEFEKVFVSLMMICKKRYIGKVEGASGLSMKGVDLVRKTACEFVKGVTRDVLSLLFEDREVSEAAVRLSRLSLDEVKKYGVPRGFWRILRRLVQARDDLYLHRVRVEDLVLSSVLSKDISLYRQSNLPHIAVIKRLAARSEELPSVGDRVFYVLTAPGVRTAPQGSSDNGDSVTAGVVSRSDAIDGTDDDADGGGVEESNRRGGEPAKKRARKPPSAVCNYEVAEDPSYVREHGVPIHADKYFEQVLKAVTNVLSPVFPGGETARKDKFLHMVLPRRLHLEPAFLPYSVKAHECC
Resp: 5.52

Req: Request: pIC50, test system HCMV DNA pol (Human cytomegalovirus, UniProt P08546), entry COC(=O)C(OC[C@@H]1CCCC[C@@H]1Cn1cc(C)c(=O)[nH]c1=O)P(=O)(O)O (some centres unmarked) [Compound 13j]
Resp: 4.80

----------
target: HCMV DNA pol (Human cytomegalovirus, UniProt P08546)
measure: log10(IC50) (log10 of the value in µM)
Hello, just confirming the data are log10 of IC50 with units of µM.

Some entries whose results are on file:
INSERT INTO assay_data (compound, obs_value) VALUES
  ('Cc1cn(C[C@H]2CCC[C@H]2COC(C(=O)O)P(=O)(O)O)c(=O)[nH]c1=O (some centres unmarked) [Compound 13d]', 1.60),
  ('Cc1cn(C[C@H]2C[C@H]2COC(C(=O)O)P(=O)(O)O)c(=O)[nH]c1=O (some centres unmarked) [Compound 13c]', 0.66),
  ('Cc1cn(CCCCOC(C(=O)O)P(=O)(O)O)c(=O)[nH]c1=O (centres unmarked) [Compound 13h]', 1.46);

Req: What log10(IC50) appears in the records for this compound with HCMV DNA pol (Human cytomegalovirus, UniProt P08546)? Cc1cn(CCOC(C(=O)O)P(=O)(O)O)c(=O)[nH]c1=O (centres unmarked)
Resp: 2.21

Req: Request: log10(IC50), test system HCMV DNA pol (Human cytomegalovirus, UniProt P08546), entry Cc1cn(C[C@H]2CCCC[C@H]2COC(C(=O)O)P(=O)(O)O)c(=O)[nH]c1=O (some centres unmarked) [Compound 13i]
Resp: 0.60

Req: // fetch HCMV DNA pol (Human cytomegalovirus, UniProt P08546) log10(IC50) for Cc1cn(Cc2ccccc2COC(C(=O)O)P(=O)(O)O)c(=O)[nH]c1=O (centres unmarked) [Compound 13g]
Resp: 1.11

----------
molecular target: HIV-1 RT (Human immunodeficiency virus type 1 group M subtype B); construct: HIV-1 RT Assays in the Presence of Artificial Template/Primer; assay: HIV-1 RT assay in the presence of artificial template/primer; type: biochemical; details: values marked *: in poly rA.dT/dTTP RT assay; read-out: IC50 HIV-1 RT
As shown below, each of these molecules has a reported pIC50 value.
As a rule, pIC50 stands for the negative log10 of the concentration, concentration in M.

Would you please look over these solved cases?
INSERT INTO measurements (molecule, system_name, obs_value) VALUES
  ('Nc1ccn(C/C=C\COC(C(=O)O)P(=O)(O)O)c(=O)n1 (centres unmarked) [Compound 13o]', 'HIV-1 RT (Human immunodeficiency virus type 1 group M subtype B)', 3.61),
  ('O=C(O)C(OCCCCn1cc(F)c(=O)[nH]c1=O)P(=O)(O)O (centres unmarked) [Compound 13l]', 'HIV-1 RT (Human immunodeficiency virus type 1 group M subtype B)', 3.67);

Req: Data request, read-out pIC50, for Nc1ncnc2c1ncn2C/C=C\COC(C(=O)O)P(=O)(O)O (centres unmarked) [Compound 13m]
Resp: 3.37
